The reported measurements were obtained from paper PMC12416549.

Molecular target: T1, TNFR1 (Homo sapiens, UniProt P19438)
T1 chain: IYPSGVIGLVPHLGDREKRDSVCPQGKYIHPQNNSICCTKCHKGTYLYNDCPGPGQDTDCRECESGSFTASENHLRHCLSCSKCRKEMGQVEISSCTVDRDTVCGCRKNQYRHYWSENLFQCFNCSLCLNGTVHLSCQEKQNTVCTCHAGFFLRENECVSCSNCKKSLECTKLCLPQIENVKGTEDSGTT
Experiment: yeast display SC50
reported.property: apparent Kd (screen) (nM)

P. E16K (designed binder) MTLQELLREEALRRAKAEAFRYALELLAEKFPEQKEYLLDLAEEIESQIRSLSGVDVEDVRKFLDKEWAWVKELLAEHPAELAEVEAARAARLAELRAEVEAKVAA
Q. D59K (designed binder) MTLQELLREEALRRAEAEAFRYALELLAEKFPEQKEYLLDLAEEIESQIRSLSGVDVEKVRKFLDKEWAWVKELLAEHPAELAEVEAARAARLAELRAEVEAKVAA
R. L24C (designed binder) MTLQELLREEALRRAEAEAFRYACELLAEKFPEQKEYLLDLAEEIESQIRSLSGVDVEDVRKFLDKEWAWVKELLAEHPAELAEVEAARAARLAELRAEVEAKVAA
S. L52F (designed binder) MTLQELLREEALRRAEAEAFRYALELLAEKFPEQKEYLLDLAEEIESQIRSFSGVDVEDVRKFLDKEWAWVKELLAEHPAELAEVEAARAARLAELRAEVEAKVAA
[in] Order field: apparent Kd (screen) | Direction: descending (largest first) Please respond with the labels ordered as the question requires.
[out] P, S, Q, R
